Tested on: T47D
EXPERIMENT: NCI tumour cell line growth inhibition, 48 h
Calls of active or inactive are those of the source. Cut-off read from the data, not from the text of the source: active = GI50 up to about 1.1 µM and inactive = higher.
// allowed return values: active, inactive

Reference set, count: 2
Cc1c2ccnc(C(=O)NCCN(C)C)c2cc2c3cc(O)ccc3n(C)c12	active
Cc1cc(C)nc(NS(=O)(=O)c2ccc(Nc3nnc(/C=C/c4c(O)ccc5ccccc45)c(=O)n3N)cc2)n1	inactive

Field: outcome | Entry: CN1CCN(C(=S)N(C(=O)c2ccc(Cl)cc2)c2ccccc2)CC1
inactive

Field: outcome | Entry: O=C1NC(N2CCCC(CO)C2)=N/C1=C\c1ccc(Cl)cc1 (configuration not stated)
inactive

Field: outcome | Entry: c1ccc(B2OCC(C3OB(c4ccccc4)OC4COB(c5ccccc5)OC43)O2)cc1 (configuration not stated)
inactive

Field: outcome | Entry: CC(=O)N1N=C(c2ccc3ccccc3c2O)CC1c1ccc(Cl)cc1Cl (configuration not stated)
inactive

Field: outcome | Entry: COc1ccc(/C=C2\C=Cc3ccccc32)cc1OC
inactive

Field: outcome | Entry: CO/[N+]([O-])=C\C(=O)N/C=C/C(=O)O
inactive

Field: outcome | Entry: O=C(NC(CO)Cc1ccc(Oc2cc(CC(CO)NC(=O)OCc3ccccc3)ccc2OC(=O)OCc2ccccc2)cc1)OCc1ccccc1 (configuration not stated)
inactive

Field: outcome | Entry: CCOC(=O)c1c(O)nc(O)c(CC)c1C
inactive

Field: outcome | Entry: NC(=S)N/N=C1/CCCC2CCCC[C@@H]12 (some centres not stated)
inactive

Field: outcome | Entry: CCCCCCCCC(=O)NCCN(CCN)C(=O)CCCCCCCC
inactive

Field: outcome | Entry: O=C(O)/C(=C\c1ccncc1)c1cccc2ccccc12
inactive

Field: outcome | Entry: Cc1ccc(S(=O)(=O)OC2C(O)C(O)OC2C(c2cc(O)c3c(c2O)C(=O)c2ccccc2C3=O)c2cc(O)c3c(c2O)C(=O)c2ccccc2C3=O)cc1 (configuration not stated)
inactive

Field: outcome | Entry: OC1CC(O)c2c(Cl)sc(Cl)c21 (configuration not stated)
inactive

Field: outcome | Entry: NC1C2C(CC(=O)O)OCC=C3CN4CCC1(C(=O)C(=O)O)C4CC32 (configuration not stated)
inactive

Field: outcome | Entry: CCCCCCOC(=O)C(N)Cc1ccc(OC)cc1 (configuration not stated)
inactive

Field: outcome | Entry: Clc1ccc2c(NCCCCCCNc3ccnc4cc(Cl)ccc34)ccnc2c1
inactive

Field: outcome | Entry: COc1cc(Cc2nccc3cc(OC)c(OC)cc23)c(C(C)=O)cc1OC
inactive
